meta.source: paper PMC9482650

STUDY TARGET: T1, MPP6, Q9NZW5
T1 sequence (Q9NZW5 125-219, limits assumed, looked up): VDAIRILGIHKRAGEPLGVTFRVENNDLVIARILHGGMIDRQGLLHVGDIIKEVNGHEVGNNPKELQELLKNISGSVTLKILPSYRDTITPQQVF
ASSAY REMARKS: holdup assay
Parameters: key: below the threshold = too weak to quantify, mostly under pKd 3.1 to 4
ASSAY CONTEXT: plain residues with an end cap or a label only (N-terminal biotin on a linker: ado-ado)
REPORTED METRIC: pKd

TASPAKETSF [SLC2A7, Q6PXP3] | below the threshold
QPCFNKLFPL [LPXN, O60711] | below the threshold
YRLAQESGLV [ABCC6, O95255] | 3.74
QSARLWETSI [ADAM22, Q9P0K1] | below the threshold
